testedSystem: β-secretase(BACE) (Homo sapiens)
Construct: purchased Panvera
methodDescription: BACE FS1% Inhibition Assay
Type: biochemical
runConditions: 3 μM test compound; FS1 substrate
measuredProperty: % Inhibition (FS) 3 μM (%)

In the examples that follow, each entry is paired with its recorded % Inhibition (FS) 3 μM.
>>> measuredvalue("CN(C(=O)c1cccc(CN2Cc3cc(OC4CCCC4)ccc3N=C2N)c1)C1CCCCC1")
33
>>> measuredvalue("CC(C)C(CC(=O)NC1CCCCC1)N1Cc2cc(Oc3ccccc3)ccc2N=C1N (stereo not shown)")
52
>>> measuredvalue("COc1ccccc1-c1ccc2c(c1)CN(CCNC(=O)CCN)C(N)=N2")
49
>>> measuredvalue("CCOc1cccc(Nc2ccc3c(c2)CN(Cc2cccc(C(=O)N(C)C4CCCCC4)c2)C(N)=N3)c1")
72
>>> measuredvalue("NC1=Nc2ccc(-c3ccccc3Cl)cc2CN1CCNC(=O)C12CC3CC(CC(C3)C1)C2")
96

(a) Cc1ccccc1-c1ccc2c(c1)CN(CCNC(=O)C13CC4CC(CC(C4)C1)C3)C(N)=N2
(b) CC(C)(C)OC(=O)N1CCCCC(N2Cc3cc(Oc4ccccc4)ccc3N=C2N)C1 (stereo not shown)
I'd appreciate it if you could identify which of a and b has the greater % Inhibition (FS) 3 μM. // return label of chosen record
a
(a: 100%, b: 37%)

====

testedSystem: β-secretase(BACE) (Homo sapiens, UniProt P56817)
Construct: purchased Panvera
Sequence (P56817 46-501): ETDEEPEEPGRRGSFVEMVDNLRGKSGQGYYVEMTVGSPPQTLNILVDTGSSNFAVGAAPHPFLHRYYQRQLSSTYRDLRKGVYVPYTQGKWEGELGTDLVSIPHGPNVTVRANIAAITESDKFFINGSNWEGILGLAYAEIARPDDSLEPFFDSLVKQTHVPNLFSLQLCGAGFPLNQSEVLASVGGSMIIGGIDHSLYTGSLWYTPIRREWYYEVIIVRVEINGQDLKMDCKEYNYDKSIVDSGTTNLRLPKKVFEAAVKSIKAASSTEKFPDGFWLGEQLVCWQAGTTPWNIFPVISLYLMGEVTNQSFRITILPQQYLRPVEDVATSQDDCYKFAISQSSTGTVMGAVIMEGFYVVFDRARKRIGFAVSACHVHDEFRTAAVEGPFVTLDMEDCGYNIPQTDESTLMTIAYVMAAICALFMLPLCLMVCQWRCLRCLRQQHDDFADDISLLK
methodDescription: BACE FS1% Inhibition Assay
Type: biochemical
runConditions: 3 μM test compound; FS1 substrate; read-out: % Inhibition (FS) 3 μM
measuredProperty: inhibition at 3 µM (%)

>>> measuredvalue("CN(C(=O)c1cccc(CN2Cc3cc(-c4c(Cl)cccc4Cl)ccc3N=C2N)c1)C1CCCCC1")
97
>>> measuredvalue("CC(C)[C@H](CCC(=O)N(C)C1CCCCC1)N1Cc2cc(Oc3ccccc3)ccc2N=C1N")
121
>>> measuredvalue("NC1=Nc2ccc(-c3ccccc3Cl)cc2CN1CCNC(=O)C1CCCCC1")
118
>>> measuredvalue("NC1=Nc2ccc(-c3ccccc3O)cc2CN1CCNC(=O)C1CCCCC1")
100
>>> measuredvalue("Cc1cccc(C)c1-c1ccc2c(c1)CN(Cc1cccc(C(=O)N(C)C3CCCCC3)c1)C(N)=N2")
95

(I) CCCC(CCCC(=O)NC1CCCCCC1)N1Cc2cc(Oc3ccccc3)ccc2N=C1N (centres unmarked)
(II) CC(C)CCOc1ccc2c(c1)CN(Cc1cccc(C(=O)N(C)C3CCCCC3)c1)C(N)=N2
Please compare: I and II . Report which one has the smaller inhibition at 3 µM value. Write down the label of the entry you select.
II

(1) C[C@H](CNC(=O)C1CCCCC1)N1Cc2cc(Oc3ccccc3)ccc2N=C1N
(2) Cc1ccccc1Sc1ccc2c(c1)CN(Cc1cccc(C(=O)N(C)C3CCCCC3)c1)C(N)=N2
Could you check which of 1 and 2 has a smaller value for inhibition at 3 µM? Please respond with the label that marks your chosen entry.
2

====

testedSystem: human BACE-1 (Homo sapiens)
Sequence (P56817 46-501): as above
methodDescription: BACE Assay (CEREP)
runConditions: recombinant enzyme, 60 min at 37° C., pH 4.5
measuredProperty: IC50 (nM)

>>> measuredvalue("NC1=Nc2ccc(Oc3ccccc3)cc2CN1[C@@H](CCC(=O)N(Cc1cnc[nH]1)C1CCCCC1)C1CCCCC1")
190
>>> measuredvalue("NC1=Nc2ccc(Oc3ccccc3)cc2CN1[C@@H](CCC(=O)N1C2CCCCC2C[C@H]1C(=O)O)C1CCCCC1 (some centres unmarked)")
150
>>> measuredvalue("CC(=O)OCC1OC(OCCN(C(=O)CCC(C2CCCCC2)N2Cc3cc(Oc4ccccc4)ccc3N=C2N)C2CCCCC2)C(OC(C)=O)C(OC(C)=O)C1OC(C)=O (centres unmarked)")
120
>>> measuredvalue("NC1=Nc2ccc(Oc3ccccc3)cc2CN1[C@@H](CCC(=O)N(Cc1ccncc1)C1CCCCC1)C1CCCCC1")
78
>>> measuredvalue("NC1=Nc2ccc(Oc3ccccc3)cc2CN1[C@@H](CCC(=O)N(CCO[C@@H]1O[C@H](CO)[C@@H](O)[C@H](O)[C@H]1O)C1CCCCC1)C1CCCCC1")
74

(P) NC1=Nc2ccc(Oc3ccccc3)cc2CN1[C@@H](CCC(=O)N(Cc1ncc[nH]1)C1CCCCC1)C1CCCCC1
(Q) NC1=Nc2ccc(Oc3ccccc3)cc2CN1[C@@H](CCC(=O)N(Cc1nc[nH]n1)C1CCCCC1)C1CCCCC1
Would you mind telling me which has the lower recorded IC50 between P and Q ? Answer with the label corresponding to your selection.
Q
(Q: 93 nM, P: 160 nM)
